Provide the reported self-cleavage of each item.
B1: Twister Ribozyme (parent)
chain: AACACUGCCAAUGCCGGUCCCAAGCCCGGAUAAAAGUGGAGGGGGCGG

Variants of: B1
Procedure summary: self-cleavage, relative activity (ratio to wild type); higher = more cleavage; co-transcriptional
Give bare numbers.

List self-cleavage for every entry below, keeping the order given.
1. C8A U12A
2. A33C G43C
3. U6C A11U
4. G24C A33C
5. G39A G44A
6. C3U G7A
7. A34C U37A

Response given:
[0.475, 0.107, 0.673, 0.146, 0.339, 0.0905, 0.169]

The values you see were collected from the RNAGym collection of RNA variant scans (doi:10.7554/elife.80360).
